Assay: Inhibition of alpha glucosidase (unknown origin) using alpha PNPG as substrate preincubated for 15 mins followed by substrate addition measured after 15 mins
Parameters: species or system Homo sapiens
pIC50: −log10 of the molar value.
Measure: pIC50

molecule=O=c1c(-c2ccc(O)cc2)coc2c([C@@H]3O[C@H](CO)[C@@H](O)[C@H](O)[C@H]3O)c(O)ccc12 measure=pIC50 reported_value=3.28

P. O=c1c(-c2ccc(O)cc2)coc2cc(O)ccc12
Q. C[C@H]1O[C@H](O[C@H]2[C@H](O)[C@@H](O)[C@@H](O[C@H]3[C@H](O)[C@@H](O)C(O)O[C@@H]3CO)O[C@@H]2CO)[C@H](O)[C@@H](O)[C@@H]1N[C@H]1C=C(CO)[C@@H](O)[C@H](O)[C@H]1O (stereo partly drawn)
Exercise: Lowest pIC50? choose P or Q Mark your answer with the label of the selected entry.
Solution: Q

====

Experiment: Inhibition of alpha glucosidase (unknown origin) using alpha PNPG as substrate at 0.0625 mg/mL preincubated for 15 mins followed by substrate addition measured after 15 mins relative to control
Conditions: Homo sapiens
Measure: inhibition (%)

smiles_structure=CC1(C)C=Cc2cc3c(cc2O1)O[C@@H]1c2ccc(O)cc2OC[C@@]31O reported_value=42.5

P. O=c1c(-c2ccc(O)cc2)coc2cc(O[C@@H]3O[C@H](CO)[C@@H](O)[C@H](O)[C@H]3O)ccc12
Q. O=c1c(-c2ccc(O)cc2)coc2c([C@@H]3O[C@H](CO)[C@@H](O)[C@H](O)[C@H]3O)c(O)ccc12
Exercise: Which has the higher inhibition, P or Q ? The response must carry the label of the picked entry.
Solution: P

====

Assay: Inhibition of alpha glucosidase (unknown origin) using alpha PNPG as substrate at 0.5 mg/mL preincubated for 15 mins followed by substrate addition measured after 15 mins relative to control
Conditions: Homo sapiens
Measure: inhibition (%)

compound="O=c1c(-c2ccc(O)cc2)coc2cc(O[C@@H]3O[C@H](CO)[C@@H](O)[C@H](O)[C@H]3O)ccc12 [DAIDZIN]" measure=inhibition reported_value=84.8
compound=CC1(C)C=Cc2cc3c(cc2O1)O[C@@H]1c2ccc(O)cc2OC[C@@]31O measure=inhibition reported_value=86
compound="O=c1c(-c2ccc(O)cc2)coc2c([C@@H]3O[C@H](CO)[C@@H](O)[C@H](O)[C@H]3O)c(O)ccc12 [PUERARIN]" measure=inhibition reported_value=78.3
compound="COc1ccc(-c2coc3cc(O[C@@H]4O[C@H](CO)[C@@H](O)[C@H](O)[C@H]4O)ccc3c2=O)cc1 [ONONIN]" measure=inhibition reported_value=74.9

====

Assay: Inhibition of alpha glucosidase (unknown origin) using alpha PNPG as substrate preincubated for 15 mins followed by substrate addition measured after 15 mins
Parameters: species or system Homo sapiens
Measure: IC50 (µM)

I. CC(C)=CCC/C(C)=C/Cc1cc2c3c(oc2cc1O)C(O)(O)c1ccc(O)cc1O3
II. COc1ccc(-c2coc3cc(O[C@@H]4O[C@H](CO)[C@@H](O)[C@H](O)[C@H]4O)ccc3c2=O)cc1
Exercise: Compare IC50: is it lower for I or for II ? Lab note: record the label of whichever item you select.
Solution: I
(I: 1.79 µM, II: 423 µM)

====

Test: Inhibition of alpha glucosidase (unknown origin) using alpha PNPG as substrate at 0.25 mg/mL preincubated for 15 mins followed by substrate addition measured after 15 mins relative to control
Conditions: Homo sapiens
Measure: inhibition (%)

smiles_structure=O=c1c(-c2ccc(O)cc2)coc2c([C@@H]3O[C@H](CO)[C@@H](O)[C@H](O)[C@H]3O)c(O)ccc12 measure=inhibition value_units=% reported_value=41.5
smiles_structure=CC1(C)C=Cc2cc3c(cc2O1)O[C@@H]1c2ccc(O)cc2OC[C@@]31O measure=inhibition value_units=% reported_value=60.1
smiles_structure=O=c1c(-c2ccc(O)cc2)coc2cc(O[C@@H]3O[C@H](CO)[C@@H](O)[C@H](O)[C@H]3O)ccc12 measure=inhibition value_units=% reported_value=77.3
smiles_structure=COc1ccc(-c2coc3cc(O[C@@H]4O[C@H](CO)[C@@H](O)[C@H](O)[C@H]4O)ccc3c2=O)cc1 measure=inhibition value_units=% reported_value=56.3
